Recorded CC50 at 24 h, one value per entry.
Assay: Cytotoxicity against African green monkey Vero cells assessed as reduction in cell viability incubated for 24 hrs by MTT assay
Type: cell-based
Conditions: chlorocebus sabaeus
observable: CC50 at 24 h

{"chemicalString": "O=C(NN1C(=O)c2ccccc2C1=O)c1cc2c([nH]c3ccccc32)c(-c2ccc(F)cc2)n1", "observable": "CC50 at 24 h", "measValue": "762 µM"}
{"chemicalString": "O=C(NN1C(=O)c2ccccc2C1=O)c1cc2c([nH]c3ccccc32)c(-c2cccc([N+](=O)[O-])c2)n1", "observable": "CC50 at 24 h", "measValue": "650 µM"}
{"chemicalString": "COC(=O)c1cc2c([nH]c3ccccc32)c(-c2ccc(N(C)C)cc2)n1", "observable": "CC50 at 24 h", "measValue": "435 µM"}
{"chemicalString": "O=C(NN1C(=O)c2ccccc2C1=O)c1cc2c([nH]c3ccccc32)c(-c2ccccc2)n1", "observable": "CC50 at 24 h", "measValue": "900 µM"}
{"chemicalString": "O=C(NN1C(=O)CCC1=O)c1cc2c([nH]c3ccccc32)c(-c2ccc(F)cc2)n1", "observable": "CC50 at 24 h", "measValue": "270 µM"}

---

Entries and their measured selectivity ratio follow.
Assay: Selectivity index, ratio of CC50 for African green monkey Vero cells to MIC for Mycobacterium tuberculosis BRF16
Type: toxicity
observable: selectivity ratio

{"chemicalString": "O=C(NN1C(=O)c2ccccc2C1=O)c1cc2c([nH]c3ccccc32)c(-c2cccc([N+](=O)[O-])c2)n1", "measValue": 5.2}
{"chemicalString": "COC(=O)c1cc2c([nH]c3ccccc32)c(-c2ccc(N(C)C)cc2)n1", "measValue": 3.48}
{"chemicalString": "O=C(NN1C(=O)c2ccccc2C1=O)c1cc2c([nH]c3ccccc32)c(-c2ccccc2)n1", "measValue": 7.2}
{"chemicalString": "O=C(NN1C(=O)CCC1=O)c1cc2c([nH]c3ccccc32)c(-c2ccc(F)cc2)n1", "measValue": 4.32}

---

Assay: Selectivity index, ratio of CC50 for African green monkey Vero cells to MIC for Mycobacterium tuberculosis BRF57
Format: toxicity
The following compounds are listed with their measured selectivity ratio values.

{"chemicalString": "O=C(NN1C(=O)c2ccccc2C1=O)c1cc2c([nH]c3ccccc32)c(-c2ccccc2)n1", "cmp": "=", "selectivity ratio": 7.2}
{"chemicalString": "O=C(NN1C(=O)CCC1=O)c1cc2c([nH]c3ccccc32)c(-c2ccc(F)cc2)n1", "cmp": "=", "selectivity ratio": 2.16}
{"chemicalString": "O=C(NN1C(=O)c2ccccc2C1=O)c1cc2c([nH]c3ccccc32)c(-c2cccc([N+](=O)[O-])c2)n1", "cmp": "<", "selectivity ratio": 2.6}
{"chemicalString": "COC(=O)c1cc2c([nH]c3ccccc32)c(-c2ccc(N(C)C)cc2)n1", "cmp": "=", "selectivity ratio": 3.48}
{"chemicalString": "O=C(NN1C(=O)c2ccccc2C1=O)c1cc2c([nH]c3ccccc32)c(-c2ccc(F)cc2)n1", "cmp": "=", "selectivity ratio": 6.1}

---

Assay: Selectivity index, ratio of CC50 for African green monkey Vero cells to MIC for Mycobacterium tuberculosis BRF45
Type: toxicity
observable: selectivity ratio

{"chemicalString": "O=C(NN1C(=O)c2ccccc2C1=O)c1cc2c([nH]c3ccccc32)c(-c2ccc(F)cc2)n1", "measValue": 12.2}
{"chemicalString": "O=C(NN1C(=O)c2ccccc2C1=O)c1cc2c([nH]c3ccccc32)c(-c2ccccc2)n1", "measValue": 14.4}
{"chemicalString": "COC(=O)c1cc2c([nH]c3ccccc32)c(-c2ccc(N(C)C)cc2)n1", "measValue": 13.9}
{"chemicalString": "O=C(NN1C(=O)c2ccccc2C1=O)c1cc2c([nH]c3ccccc32)c(-c2cccc([N+](=O)[O-])c2)n1", "measValue": 5.2}
{"chemicalString": "O=C(NN1C(=O)CCC1=O)c1cc2c([nH]c3ccccc32)c(-c2ccc(F)cc2)n1", "measValue": 8.64}
